# test-target: TXA2 receptors (Homo sapiens, UniProt P21731)
# Construct: endogenous in cells
# Sequence (P21731 1-343): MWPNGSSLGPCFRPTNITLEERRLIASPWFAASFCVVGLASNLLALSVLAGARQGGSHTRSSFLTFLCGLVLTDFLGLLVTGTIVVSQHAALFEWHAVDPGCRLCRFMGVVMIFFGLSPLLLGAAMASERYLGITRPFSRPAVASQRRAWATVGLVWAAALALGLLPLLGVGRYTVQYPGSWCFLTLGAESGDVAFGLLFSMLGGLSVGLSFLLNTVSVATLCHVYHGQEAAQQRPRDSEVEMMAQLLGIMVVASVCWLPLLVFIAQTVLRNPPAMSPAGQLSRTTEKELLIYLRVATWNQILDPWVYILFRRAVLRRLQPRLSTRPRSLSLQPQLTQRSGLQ
# assay: human platelet binding assay ([125I]PTA-OH as receptor ligand)
# test-settings: 50% inhibition of specific [^125 I]PTA-OH binding, human platelets
endpoint: pIC50
In textbook form, pIC50 equals minus log to base ten of the concentration in mol/L.

// solved cases for pIC50 follow
{"compound": "Cc1cc(NS(=O)(=O)c2ccccc2)cnc1CCCC(=O)O", "pIC50": 5.59}
{"compound": "O=C(O)CCCCc1ccc(NS(=O)(=O)c2ccccc2)cn1", "pIC50": 5.40}

Tell me the measured pIC50 of O=C(O)CCc1ccc(NS(=O)(=O)c2ccc(Cl)cc2)cn1 , please.
3.60

Tell me the measured pIC50 of O=C(O)CCCc1ccc(NS(=O)(=O)c2cccc(C(F)(F)F)c2)cn1 , please.
4.80

Tell me the measured pIC50 of COc1ccc(S(=O)(=O)Nc2ccc(CCCC(=O)O)nc2)cc1 , please.
5.28

---

Reported pIC50 values are given for each entry in this list.
# test-target: TXA2 receptors (Homo sapiens, UniProt P21731)
# Construct: endogenous in cells
# Sequence (P21731 1-343): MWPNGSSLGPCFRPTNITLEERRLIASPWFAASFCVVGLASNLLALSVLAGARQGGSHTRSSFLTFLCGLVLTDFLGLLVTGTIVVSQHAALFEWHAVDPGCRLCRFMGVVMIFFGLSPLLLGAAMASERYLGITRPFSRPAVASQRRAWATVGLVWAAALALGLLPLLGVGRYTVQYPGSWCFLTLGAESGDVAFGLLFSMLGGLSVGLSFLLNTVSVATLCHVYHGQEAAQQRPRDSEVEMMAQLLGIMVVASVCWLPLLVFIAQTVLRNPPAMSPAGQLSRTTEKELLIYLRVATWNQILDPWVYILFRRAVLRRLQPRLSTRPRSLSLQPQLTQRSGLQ
# assay: human platelet binding assay ([125I]PTA-OH as receptor ligand)
# test-settings: 50% inhibition of specific [^125 I]PTA-OH binding, human platelets
In textbook form, pIC50 equals minus log to base ten of the concentration in mol/L.

// solved cases for pIC50 follow
{"compound": "O=C(O)CCCc1ccc(NS(=O)(=O)c2ccccc2)cn1", "pIC50": 5.89}
{"compound": "O=C(O)CCCc1ncccc1NS(=O)(=O)c1ccccc1", "pIC50": 3.99}
{"compound": "O=C(O)CCCc1ccc(NS(=O)(=O)c2cccc(Cl)c2)cn1", "pIC50": 5.92}
{"compound": "O=C(O)CCCc1ccc(NS(=O)(=O)c2ccc(Br)cc2)cn1", "pIC50": 6.70}
{"compound": "Cc1ccc(S(=O)(=O)Nc2ccc(CCCC(=O)O)nc2)cc1", "pIC50": 6.22}

Tell me the measured pIC50 of O=C(O)CCCc1ccc(S(=O)(=O)Nc2ccc(Cl)cc2)cn1 , please.
4.68

Tell me the measured pIC50 of O=C(O)CCCc1ccc(S(=O)(=O)Nc2ccccc2)cn1 , please.
4.55

---

# test-target: TXA2 receptors (Homo sapiens)
# Construct: endogenous in cells
# Sequence (P21731 1-343): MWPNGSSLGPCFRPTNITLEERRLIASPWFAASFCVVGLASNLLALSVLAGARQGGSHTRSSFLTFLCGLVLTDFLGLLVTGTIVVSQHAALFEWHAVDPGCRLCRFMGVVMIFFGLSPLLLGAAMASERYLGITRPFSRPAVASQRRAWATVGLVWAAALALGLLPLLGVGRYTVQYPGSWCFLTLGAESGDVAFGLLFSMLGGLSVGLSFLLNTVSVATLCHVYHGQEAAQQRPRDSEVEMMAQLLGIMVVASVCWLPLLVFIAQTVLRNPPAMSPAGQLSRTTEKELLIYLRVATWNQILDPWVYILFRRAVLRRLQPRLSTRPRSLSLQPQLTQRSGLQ
# assay: human platelet binding assay ([125I]PTA-OH as receptor ligand)
# test-settings: 50% inhibition of specific [^125 I]PTA-OH binding, human platelets
Reported pIC50 values are given for each entry in this list.
In textbook form, pIC50 equals minus log to base ten of the concentration in mol/L.

// solved cases for pIC50 follow
{"molecule": "O=C(O)CCCc1ccc(NS(=O)(=O)c2ccc(Cl)cc2)cn1 [Example 2]", "endpoint": "pIC50", "endpoint-value": 6.44}
{"molecule": "O=C(O)CCCCc1ccc(NS(=O)(=O)c2ccc(Cl)cc2)cn1 [Example 6]", "endpoint": "pIC50", "endpoint-value": 6.00}

Tell me the measured pIC50 of O=C(O)CCCc1ccc(NS(=O)(=O)c2ccc(Cl)c(Cl)c2)cn1 [Example 15] , please.
5.68
